Would you kindly list Total Cell Count for each of these compounds?
Test system: U2OS
Test: Multiplex assay against U2OS
Format: toxicity, cell-based
Settings: human, 48 h, 1 µM, compound concentration 1 uM, replicate 2
One number for each entry.

Worked cases, answers included:
- O=C(CCCc1ccccc1)Nc1nc2ccccc2c(=O)s1: 192
- Cc1cnc(-c2cc(N3CCN(C(=O)CCS(C)(=O)=O)CC3)ncc2Cl)c(C)c1: 184
- CCCCCC(O)/C=C/[C@H]1C(=O)CC(O)C1C/C=C\CCCC(=O)O (some centres undefined): 189
- Cl.N=C(N)NC(=O)Cc1c(Cl)cccc1Cl [GUANFACINE HYDROCHLORIDE]: 217
- Cc1c(CC(=O)O)c2cccnc2n1Cc1ccc(S(C)(=O)=O)cc1C(F)(F)F [FEVIPIPRANT]: 187

Below are some compounds; for each one, tell me its Total Cell Count.
1. CCCCC1=NC2(CCCC2)C(=O)N1Cc1ccc(-c2ccccc2-c2nnn[nH]2)cc1 [IRBESARTAN]
2. CC(C)(C)c1cc(NC(=O)Nc2ccc(-c3cn4c(n3)sc3cc(OCCN5CCOCC5)ccc34)cc2)no1 [QUIZARTINIB]

A:
[198, 180]

Below are some compounds; for each one, tell me its Total Cell Count.
1. Cc1noc(-c2ccc(-c3ccc(CC(=O)O)cc3)cc2)c1NC(=O)O[C@H](C)c1ccccc1Cl
2. N#Cc1cc(F)cc(-c2nc(-c3ccc(F)cn3)no2)c1

A:
[170, 199]
